- ASSAY TARGET: Cannabinoid receptor 1 (Homo sapiens, UniProt P21554)
- Sequence (P21554 whole entry): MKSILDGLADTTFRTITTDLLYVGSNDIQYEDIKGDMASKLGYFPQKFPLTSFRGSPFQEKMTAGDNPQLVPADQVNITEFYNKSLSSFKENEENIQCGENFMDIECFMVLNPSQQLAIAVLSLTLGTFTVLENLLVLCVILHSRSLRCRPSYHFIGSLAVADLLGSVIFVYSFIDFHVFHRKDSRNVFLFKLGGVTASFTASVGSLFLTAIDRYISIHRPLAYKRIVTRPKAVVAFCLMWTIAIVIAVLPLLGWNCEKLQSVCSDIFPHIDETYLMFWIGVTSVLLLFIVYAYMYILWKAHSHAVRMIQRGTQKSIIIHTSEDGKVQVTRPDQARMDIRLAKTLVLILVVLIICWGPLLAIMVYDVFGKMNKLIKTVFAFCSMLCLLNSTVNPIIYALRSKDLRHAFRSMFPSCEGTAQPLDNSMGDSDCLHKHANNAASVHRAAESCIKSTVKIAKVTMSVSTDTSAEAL
- MEASUREMENT DESCRIPTION: Allosteric antagonist activity at human CB1 receptor expressed in CHO-RD-HGA16 cells overexpressing Galpha16 assessed as inhibition of CP55940-stimulated calcium mobilization preincubated for 15 mins followed by agonist addition and measured every 1 sec for 90 secs by Calcium-3 dye based FLIPR assay
ASSAY METRIC: IC50 (nM)
// return numeric value only (unit: nM, not printed)

Query :: Report IC50 for "O=C(NC[C@H]1C[C@@H]1c1ccccc1)Nc1ccc(Cl)cc1" please.
Result :: 2510
